System: HSkMC (human skeletal muscle cells)
measurement-description: cytotoxicity call (relative viability < 0.9)
protocol-conditions: 10 µM
Out of some 39,000 compounds screened, about 1,500 (3.8%) were called active. This excerpt belongs to a sample that is enriched for actives.
Labels: yes (1) for active, no (0) for inactive

1) C[C@H](CO)N1C[C@H](C)[C@@H](CN(C)Cc2ccc(C(F)(F)F)cc2)OCc2ccccc2-c2c(n(C)c3ccccc23)C1=O no (0)
2) C[C@@H]1CN([C@H](C)CO)C(=O)c2c(c3ccccc3n2C)-c2ccccc2CO[C@@H]1CN(C)Cc1ccc(F)cc1 no (0)
3) C[C@H]1CN([C@@H](C)CO)C(=O)c2c(c3ccccc3n2C)-c2ccccc2CO[C@@H]1CN(C)Cc1ccc(C(F)(F)F)cc1 no (0)
4) C[C@@H]1CN([C@H](C)CO)C(=O)c2c(c3ccccc3n2C)-c2ccccc2CO[C@@H]1CN(C)Cc1ccc(C(F)(F)F)cc1 yes (1)
5) C[C@@H]1CN([C@H](C)CO)C(=O)c2c(c3ccccc3n2C)-c2ccccc2CO[C@@H]1CN(C)S(=O)(=O)c1ccc(C(F)(F)F)cc1 no (0)
6) C[C@H](CO)N1C[C@H](C)[C@H](CN(C)Cc2ccc(C(F)(F)F)cc2)OCc2ccccc2-c2c(n(C)c3ccccc23)C1=O no (0)
7) C[C@H]1CCCCO[C@H](CN(C)C(=O)Nc2ccc3c(c2)OCO3)[C@@H](C)CN([C@@H](C)CO)C(=O)c2cc(NC(=O)CCC(F)(F)F)ccc2O1 no (0)
